Record form. Attribute: Papp. Fill in for each entry.
- Assay remarks: Permeability of compound by artificial membrane assay
- Type: ADME
- Measurement conditions: PAMPA; read-out: permeability
Answers are plain numbers, in ×10⁻⁶ cm/s.

Recorded Papp, per entry:
structure=CNC(=O)c1cc(C(=O)NCCC[C@H]2OC[C@H](N)CO2)cc2c1O[C@H](CF)[C@H]2c1ccccc1 assay_result=4.5
structure=CNC(=O)c1cc(C(=O)N[C@@H]2[C@@H]3COC[C@@H]32)cc2c1O[C@H](CF)[C@H]2c1ccccc1 assay_result=16.5
structure=CNC(=O)c1cc(C(=O)NC2CC2)cc2c1O[C@H](CO)[C@H]2c1ccccc1 assay_result=26.6
structure=CNC(=O)c1cc(C(=O)N[C@@H]2C[C@H]2CO)cc2c1O[C@H](CF)[C@H]2c1ccccc1 assay_result=7.3

Now consider the entry below.
Look at this molecule and give its reported Papp. CNC(=O)c1cc(C(=O)NC2CC2)cc2c1O[C@H](C)[C@H]2c1ccccc1
44
